Target: Recombinant Csk (Homo sapiens)
Sequence (P41240 whole entry, species assumed): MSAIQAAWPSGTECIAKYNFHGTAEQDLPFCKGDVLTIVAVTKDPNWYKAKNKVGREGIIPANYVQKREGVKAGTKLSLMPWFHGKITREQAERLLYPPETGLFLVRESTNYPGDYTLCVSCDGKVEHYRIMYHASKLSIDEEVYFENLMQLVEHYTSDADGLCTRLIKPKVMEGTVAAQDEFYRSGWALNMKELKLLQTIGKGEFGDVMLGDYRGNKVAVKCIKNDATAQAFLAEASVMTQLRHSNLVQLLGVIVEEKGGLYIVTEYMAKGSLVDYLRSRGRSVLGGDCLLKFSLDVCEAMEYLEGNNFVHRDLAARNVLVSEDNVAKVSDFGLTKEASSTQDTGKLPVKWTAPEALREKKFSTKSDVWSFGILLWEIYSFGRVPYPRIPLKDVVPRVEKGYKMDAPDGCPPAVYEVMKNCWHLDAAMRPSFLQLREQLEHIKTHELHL
Assay: Csk tyrosine kinase activity, poly E4Y / 32P-ATP phosphorylation assay
Format: biochemical
Details: Table 2, Formula I compounds; NI = no inhibition at 100 μg/mL
Label yes (1) when IC50 is strictly below 8 µM; at or above that, label no (0).

>>> class("Cc1ccc(S(=O)(=O)Nc2cc(Sc3cccc(Cl)c3)c([N+](=O)[O-])cc2NS(=O)(=O)c2ccc(C)cc2)cc1 [Compound 4g]")
"no (0)"
>>> class("Cc1ccc(S(=O)(=O)Nc2cc(Sc3ccc(O)cc3)c([N+](=O)[O-])cc2NS(=O)(=O)c2ccc(C)cc2)cc1 [Compound 4d]")
"no (0)"
>>> class("COc1ccc(CSc2cc(NS(=O)(=O)c3ccc(C)cc3)c(NS(=O)(=O)c3ccc(C)cc3)cc2[N+](=O)[O-])cc1 [Compound 4s]")
"yes (1)"
>>> class("Cc1ccc(S(=O)(=O)Nc2cc(SCc3ccc(Cl)cc3)c([N+](=O)[O-])cc2NS(=O)(=O)c2ccc(C)cc2)cc1 [Compound 4q]")
"yes (1)"
>>> class("Cc1ccc(S(=O)(=O)Nc2cc(Sc3ccccc3C)c([N+](=O)[O-])cc2NS(=O)(=O)c2ccc(C)cc2)cc1 [Compound 4j]")
"no (0)"
>>> class("COc1cccc(Sc2cc(NS(=O)(=O)c3ccc(C)cc3)c(NS(=O)(=O)c3ccc(C)cc3)cc2[N+](=O)[O-])c1 [Compound 4c]")
"no (0)"

====

Target: Recombinant human Src (Homo sapiens, UniProt P12931)
Construct: made in house; host or cells: baculovirus-insect cell system
Sequence (P12931 whole entry): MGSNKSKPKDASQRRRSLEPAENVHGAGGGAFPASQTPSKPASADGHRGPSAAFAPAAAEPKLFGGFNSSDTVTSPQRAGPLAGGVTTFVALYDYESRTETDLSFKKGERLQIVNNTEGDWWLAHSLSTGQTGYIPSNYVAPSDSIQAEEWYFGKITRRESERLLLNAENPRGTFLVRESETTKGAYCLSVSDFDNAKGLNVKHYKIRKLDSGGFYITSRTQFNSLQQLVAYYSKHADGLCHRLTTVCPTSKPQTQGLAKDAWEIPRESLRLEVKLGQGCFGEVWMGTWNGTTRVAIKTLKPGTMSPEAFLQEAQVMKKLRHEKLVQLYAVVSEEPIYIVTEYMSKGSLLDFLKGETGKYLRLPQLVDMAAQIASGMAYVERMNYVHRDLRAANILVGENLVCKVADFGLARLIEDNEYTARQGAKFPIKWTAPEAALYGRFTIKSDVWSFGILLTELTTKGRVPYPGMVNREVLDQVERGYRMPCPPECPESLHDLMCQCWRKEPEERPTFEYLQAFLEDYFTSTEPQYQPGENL
Experiment: Src tyrosine kinase activity, poly E4Y / 32P-ATP phosphorylation assay
Assay type: biochemical
Conditions: Table 3; compound at 15 μg/mL; read-out: % Inhibition at 15 μg/mL Src (%)
Form field: inhibition at 15 µg/mL (one value per entry).
measurement label: inhibition at 15 µg/mL (%)

>>> recorded_number("Cc1ccc(S(=O)(=O)Nc2ccc(C(=O)NCC(C)(C)CO)cc2NS(=O)(=O)c2ccc(C)cc2)cc1 [Compound 22f]")
3
>>> recorded_number("CON=C(c1ccccc1)c1ccc(NS(=O)(=O)c2ccc(C)cc2)c(NS(=O)(=O)c2ccc(C)cc2)c1 [Compound 22kk]")
23
>>> recorded_number("Cc1ccc(S(=O)(=O)Nc2ccc(SCc3ccccc3Cl)cc2NS(C)(=O)=O)cc1 [Compound 22nn]")
21
>>> recorded_number("COC(=O)c1c(S(=O)(=O)Nc2ccc(Oc3ccc(OC)cc3)cc2NS(=O)(=O)c2ccc(C)cc2)c(C)n(C)c1C [Compound 22w]")
6
>>> recorded_number("COc1ccc(Oc2ccc(NS(=O)(=O)c3ccc(-c4ccon4)s3)c(NS(=O)(=O)c3ccc(C)cc3)c2)cc1 [Compound 22v]")
22
>>> recorded_number("COc1ccc(Oc2ccc(NS(=O)(=O)c3ccc(C)cc3)c(NS(=O)(=O)c3c(C)noc3C)c2)cc1 [Compound 22n]")
5
>>> recorded_number("COc1ccc(Oc2ccc(NS(=O)(=O)c3ccc(C)cc3)c(NS(=O)(=O)c3cn(C)cn3)c2)cc1 [Compound 22o]")
0
>>> recorded_number("Cc1ccc(S(=O)(=O)Nc2ccc(C(=NO)c3ccccc3)cc2NS(=O)(=O)c2ccc(C)cc2)cc1 [Compound 22jj]")
16
>>> recorded_number("Cc1ccc(S(=O)(=O)Nc2cc(SCc3ccccc3Cl)ccc2NS(C)(=O)=O)cc1 [Compound 22ll]")
17
>>> recorded_number("COc1ccc(Oc2ccc(NS(=O)(=O)c3cn(C)cn3)c(NS(=O)(=O)c3ccc(C)cc3)c2)cc1 [Compound 22s]")
3
>>> recorded_number("COc1ccc(Oc2ccc(NS(=O)(=O)c3ccc(C)cc3)c(NS(C)(=O)=O)c2)cc1 [Compound 22m]")
22
>>> recorded_number("COc1ccc(Oc2ccc(NS(=O)(=O)c3ccc(C)cc3)c(NS(=O)(=O)c3ccc(S(C)(=O)=O)cc3)c2)cc1 [Compound 22ff]")
2
>>> recorded_number("Cc1ccc(S(=O)(=O)Nc2ccc(NS(=O)(=O)c3cccs3)cc2NS(=O)(=O)c2ccc(C)cc2)cc1 [Compound 22i]")
26
>>> recorded_number("COc1ccc(Oc2ccc(NS(C)(=O)=O)c(NS(=O)(=O)c3ccc(C)cc3)c2)cc1 [Compound 22p]")
17
>>> recorded_number("COc1ccc(Oc2ccc(NS(=O)(=O)c3ccc(C)cc3)c(NS(=O)(=O)c3ccc(C)cc3OC)c2)cc1 [Compound 22hh]")
17

====

Target: Recombinant human Src (Homo sapiens)
Construct: made in house; host or cells: baculovirus-insect cell system
Test: Src tyrosine kinase activity, poly E4Y / 32P-ATP phosphorylation assay
Assay type: biochemical
Settings: Table 3, Formula II compounds; NI = no inhibition at 100 μg/mL
measurement label: IC50 (µM)

>>> recorded_number("Cc1ccc(S(=O)(=O)Nc2ccc(N(C)C)cc2NS(=O)(=O)c2ccc(C)cc2)cc1 [Compound 17c]")
39
>>> recorded_number("Cc1ccc(S(=O)(=O)Nc2ccc(Oc3ccc4ccccc4c3)cc2NS(=O)(=O)c2ccc(C)cc2)cc1 [Compound 12u]")
12
>>> recorded_number("Cc1ccc(S(=O)(=O)Nc2ccc(N3CCN(S(=O)(=O)c4ccc(C)cc4)CC3)cc2NS(=O)(=O)c2ccc(C)cc2)cc1 [Compound 17e]")
19
>>> recorded_number("COc1ccc(Oc2ccc(NS(=O)(=O)c3ccc(C(C)C)cc3)c(NS(=O)(=O)c3ccc(C(C)C)cc3)c2)cc1 [Compound 12b]")
18.5
>>> recorded_number("COc1ccc(Oc2ccc(NS(=O)(=O)c3cccc4cnccc34)c(NS(=O)(=O)c3ccc(C)cc3)c2)cc1 [Compound 22cc]")
45
>>> recorded_number("Cc1ccc(S(=O)(=O)Nc2ccc(Oc3ccc(F)cc3)cc2NS(=O)(=O)c2ccc(C)cc2)cc1 [Compound 12t]")
19

====

Target: Recombinant human Src (Homo sapiens, UniProt P12931)
Construct: made in house; host or cells: baculovirus-insect cell system
Assay: Src tyrosine kinase activity, poly E4Y / 32P-ATP phosphorylation assay
Assay type: biochemical
Settings: Table 3, Formula II compounds; NI = no inhibition at 100 μg/mL
Form field: IC50 (one value per entry).
measurement label: IC50 (µM)

>>> recorded_number("Cc1ccc(S(=O)(=O)Nc2ccc(SCc3ccccc3Cl)cc2NS(=O)(=O)c2ccc(C)cc2)cc1 [Compound 15g]")
11
>>> recorded_number("Cc1ccc(S(=O)(=O)Nc2ccc(Oc3ccc(CC(=O)O)cc3)cc2NS(=O)(=O)c2ccc(C)cc2)cc1 [Compound 12aa]")
6.7
>>> recorded_number("COc1ccc(Oc2ccc(NS(=O)(=O)c3sc(NC(C)=O)nc3C)c(NS(=O)(=O)c3ccc(C)cc3)c2)cc1 [Compound 22q]")
154
>>> recorded_number("COc1ccc(Oc2ccc(NS(=O)(=O)c3ccc(NC(C)=O)cc3)c(NS(=O)(=O)c3ccc(NC(C)=O)cc3)c2)cc1 [Compound 12j]")
50
>>> recorded_number("COc1ccc(Oc2ccc(NS(=O)(=O)c3ccc(Cl)cc3)c(NS(=O)(=O)c3ccc(Cl)cc3)c2)cc1 [Compound 12c]")
8.6
>>> recorded_number("COc1ccc(Oc2ccc(NS(=O)(=O)c3ccc(C)cc3)c(NS(=O)(=O)CCc3cccc4ccccc34)c2)cc1 [Compound 22ee]")
50
>>> recorded_number("COc1ccc(Oc2ccc(NS(=O)(=O)c3cccc([N+](=O)[O-])c3)c(NS(=O)(=O)c3cccc([N+](=O)[O-])c3)c2)cc1 [Compound 12f]")
20
>>> recorded_number("COc1ccc(Oc2ccc(NS(=O)(=O)c3cccc(OC)c3)c(NS(=O)(=O)c3ccc(C)cc3)c2)cc1 [Compound 22aa]")
133
>>> recorded_number("COc1ccc(Oc2ccc(NS(=O)(=O)c3ccc(F)cc3)c(NS(=O)(=O)c3ccc(F)cc3)c2)cc1 [Compound 12d]")
24
>>> recorded_number("COc1ccc(Oc2ccc(NS(=O)(=O)c3c(C)noc3C)c(NS(=O)(=O)c3ccc(C)cc3)c2)cc1 [Compound 22r]")
335
>>> recorded_number("COc1ccc(NS(=O)(=O)c2ccc(C)cc2)c(NS(=O)(=O)c2ccc(C)cc2)c1 [Compound 12v]")
69
>>> recorded_number("COc1ccc(Oc2ccc(NS(=O)(=O)Cc3ccccc3)c(NS(=O)(=O)Cc3ccccc3)c2)cc1 [Compound 12g]")
35
>>> recorded_number("COc1ccc(Oc2ccc(NS(=O)(=O)c3cccc4ccccc34)c(NS(=O)(=O)c3cccc4ccccc34)c2)cc1 [Compound 12h]")
9
>>> recorded_number("CCCCSc1ccc(NS(=O)(=O)c2ccc(C)cc2)c(NS(=O)(=O)c2ccc(C)cc2)c1 [Compound 12hh]")
18
>>> recorded_number("COc1ccc(Oc2ccc(NS(=O)(=O)c3ccc(Br)s3)c(NS(=O)(=O)c3ccc(C)cc3)c2)cc1 [Compound 22bb]")
19.5
>>> recorded_number("COc1ccc(Oc2ccc(NS(=O)(=O)c3ccc(Cl)c4nonc34)c(NS(=O)(=O)c3ccc(C)cc3)c2)cc1 [Compound 22u]")
20
>>> recorded_number("Cc1ccc(S(=O)(=O)Nc2ccc(C(=O)NC(C)(C)C)cc2NS(=O)(=O)c2ccc(C)cc2)cc1 [Compound 22c]")
300
